Ref: patent US20140161798A1

# Assayed system: T1, Purified PCSK9 carrying a C-terminal FLAG tag (UniProt Q8NBP7 31-692)
# T1 construct: also called PCSK9-FLAG; PCSK9-Flag; not shown: C-terminal FLAG tag
# T1 sequence (Q8NBP7 31-692 limits assumed): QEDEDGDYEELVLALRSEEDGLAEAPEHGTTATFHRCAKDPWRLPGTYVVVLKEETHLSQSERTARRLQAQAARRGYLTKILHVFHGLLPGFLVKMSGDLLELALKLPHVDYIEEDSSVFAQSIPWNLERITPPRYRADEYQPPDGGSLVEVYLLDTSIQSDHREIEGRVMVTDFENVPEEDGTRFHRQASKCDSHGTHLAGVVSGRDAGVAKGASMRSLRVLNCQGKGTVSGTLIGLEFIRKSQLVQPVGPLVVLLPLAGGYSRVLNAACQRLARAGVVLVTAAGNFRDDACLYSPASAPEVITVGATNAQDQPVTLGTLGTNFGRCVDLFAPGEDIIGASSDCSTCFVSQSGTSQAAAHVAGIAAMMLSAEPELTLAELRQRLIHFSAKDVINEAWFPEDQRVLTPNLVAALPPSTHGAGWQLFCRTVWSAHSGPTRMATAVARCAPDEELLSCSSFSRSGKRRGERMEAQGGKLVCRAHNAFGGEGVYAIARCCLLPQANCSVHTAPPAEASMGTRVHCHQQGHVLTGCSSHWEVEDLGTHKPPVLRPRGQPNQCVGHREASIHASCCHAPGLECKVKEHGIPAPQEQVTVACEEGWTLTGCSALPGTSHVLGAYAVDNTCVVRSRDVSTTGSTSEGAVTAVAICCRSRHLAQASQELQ
# Protocol summary: AlphaScreen, inhibition of PCSK9-Flag/His-tagged LDL receptor interaction
pIC50: −log10 of the molar value.
The entries below are paired with their reported pIC50.
Measured endpoint: pIC50

Binder: 77D10 anti-PCSK9 antibody (IgG2b) (antibody, V domains shown) VH: EVQLQQSGAELVRSGASVKLSCTTSGFNIKDYYIHWVKQRPEQGLEWIGWIDPENGDTEYAPKFQGKATMTADTSSNTAYLQLSSLTSADTAVYYCNAYYRYDDGTWFPYWGQGTLVTVSA VL: DIQLTQSPASLSASVGETVTITCRASGNIHSYLAWYQQKQGKSPQFLVDNAKTLPDGVPSRFSVSGSGTQYSLKINSLQPEDFGTYYCQHFWNTPWTFGGGTKLEIKR
Measured endpoint: pIC50
Reported result: 7.42
//
Binder: 29C10 anti-PCSK9 antibody (IgG2a) (antibody, V domains shown) VH: EVLLQQSVAELVRPGASVRLSCTASGFNIKDTYIHWVRQRPEQGLEWFGWIDPANGYTKYAPNFQGKATLTTDTSSNTAYLHLSSLTSEDSAIYYCARGYYRYYSLDYWGQGTSVTVSS VL: DIQMTQTTSSLSASLGDRVTISCRASQDISNYLNWYQQKPDGTVKLLIYYSSRLHSGVPSRFSGRGSGTDYSLTISTLEQEDIATYFCQQGKTLPLTFGAGTKLELKR
Measured endpoint: pIC50
Reported result: 7.89
//
Binder: 11B5 anti-PCSK9 antibody (IgG2a) (antibody, V domains shown) VH: EVQLQQSGAELVKPGASVTLSCTASGFNIKDTYMHWVNQRPEQGLVWIGRIDPANGHTEYDPKFQDKATITTDTSSNTAYLHLSSLTSGDTAVYYCARSYFGSIFAYWGQGTLVTVSA VL: QIVLTQSPAIMSASPGEKVTISCSASSSVSYLYWYQQKPGSSPKPWIFRSSHRASGVPARFSGSGSGTSYSLTISSMEAEDAATYYCHQYQSYPPTFGGGTKLEIKR
Measured endpoint: pIC50
Reported result: 9.40
//
Binder: 75B9 anti-PCSK9 antibody (IgG2a) (antibody, V domains shown) VH: EVQLQQSGADLVKPGASVKLSCTASGFNIKDTYIHWVKQRPEQGLEWIGRIDPANGHTEYDPKFQGRATLTTDTSSNTAYLQLFSLTSEDSAVYFCARSYYGSIFAYWGQGTLVTVSA VL: QIVLTQSPAIMSASPGEKVTISCSASSSVSYLFWYQQKPGSSPKPWIFRTSYLASGVPARFSGSGSGTSFSLTISSMEAEDAATYYCHQYHTYPPTFGGGTKLEIKR
Measured endpoint: pIC50
Reported result: 9.30
